meta.source: ChEMBL document CHEMBL3885861

species: Rattus norvegicus; assay: Open TG-GATES - Regimen: Single; assay type: toxicity, organism-based, Sprague-Dawley; parameters: regimen Single, gender Male, age 6 weeks; conditions: in vivo, po, 0 mg/kg, 6 h, tissue Blood, route gavage, dose level Control
observable: Eos

// Eos value for O=NN(CCCl)C(=O)NC1CCCCC1 : 0.6%

// Eos value for CC1=C(CC(=O)O)c2cc(F)ccc2/C1=C\c1ccc([S+](C)[O-])cc1 (stereo not given) : 1%

// Eos value for CN(C)CCC=C1c2ccccc2COc2ccccc21 [DOXEPIN] : 0.8%

// Eos value for CCC1(c2ccccc2)C(=O)NC(=O)NC1=O : 1%

// Eos value for OCCOCCN1CCN(C(c2ccccc2)c2ccc(Cl)cc2)CC1 (stereo not given) [HYDROXYZINE] : 0.4%

// Eos value for CC[C@H]1[C@@H]2C[C@H]3[C@@H]4N(C)c5ccccc5[C@]45C[C@@H]([C@@H]2[C@H]5O)N3[C@@H]1O : 1.2%

// Eos value for ClC(Cl)(Cl)Cl [CARBON TETRACHLORIDE] : 0.8%

// Eos value for CN(C)C(=N)N=C(N)N : 0.8%

// Eos value for CC(C)N(CCC(C(N)=O)(c1ccccc1)c1ccccn1)C(C)C (stereo not given) [DISOPYRAMIDE] : 0.4%

// Eos value for CCc1oc2ccccc2c1C(=O)c1cc(Br)c(O)c(Br)c1 : 1%

----------
organism: Rattus norvegicus; assay: Open TG-GATES - Regimen: Single; format: toxicity, organism-based, Sprague-Dawley; set-up: regimen Single, gender Male, age 6 weeks; conditions: in vivo, po, 0 mg/kg, 3 h, tissue Plasma, route gavage, dose level Control
observable: IP (mg/dL)
Reply with just the number (in mg/dL).

// IP value for OCCOCCN1CCN(C(c2ccccc2)c2ccc(Cl)cc2)CC1 (stereo not given) [HYDROXYZINE] : 9.2

// IP value for CCc1oc2ccccc2c1C(=O)c1cc(Br)c(O)c(Br)c1 : 9.7

// IP value for CN(C)C(=N)N=C(N)N : 9.2

// IP value for O=NN(CCCl)C(=O)NC1CCCCC1 : 9.5

// IP value for CC[C@H]1[C@@H]2C[C@H]3[C@@H]4N(C)c5ccccc5[C@]45C[C@@H]([C@@H]2[C@H]5O)N3[C@@H]1O : 9.5

----------
species on record: Rattus norvegicus; experiment: Open TG-GATES - Regimen: Single; format: toxicity, organism-based, Sprague-Dawley; set-up: regimen Single, gender Male, age 6 weeks; conditions: in vivo, po, 0 mg/kg, 3 h, tissue Blood, route gavage, dose level Control
Would you kindly list PT for each of these molecules?
Reply with just the number (in s).

// PT value for CN(C)C(=N)N=C(N)N : 12.3

// PT value for CCc1oc2ccccc2c1C(=O)c1cc(Br)c(O)c(Br)c1 : 11.9

// PT value for CC[C@H]1[C@@H]2C[C@H]3[C@@H]4N(C)c5ccccc5[C@]45C[C@@H]([C@@H]2[C@H]5O)N3[C@@H]1O : 11.6

// PT value for CCC1(c2ccccc2)C(=O)NC(=O)NC1=O : 11.9

// PT value for ClC(Cl)(Cl)Cl [CARBON TETRACHLORIDE] : 12

// PT value for O=NN(CCCl)C(=O)NC1CCCCC1 : 11

// PT value for CC1=C(CC(=O)O)c2cc(F)ccc2/C1=C\c1ccc([S+](C)[O-])cc1 (centres undefined) : 14.2

// PT value for CC(C)N(CCC(C(N)=O)(c1ccccc1)c1ccccn1)C(C)C (centres undefined) [DISOPYRAMIDE] : 15.8

// PT value for OCCOCCN1CCN(C(c2ccccc2)c2ccc(Cl)cc2)CC1 (centres undefined) [HYDROXYZINE] : 15.4

----------
species on record: Rattus norvegicus; assay: Open TG-GATES - Regimen: Daily Repeat; assay type: toxicity, organism-based, Sprague-Dawley; set-up: regimen Daily Repeat, gender Male, age 6 weeks; conditions: in vivo, po, 0 mg/kg, […], tissue Plasma, route gavage, dose level Control, time 7 day
observable: CRE (mg/dL)
Reply with just the number (in mg/dL).

// CRE value for ClC(Cl)(Cl)Cl [CARBON TETRACHLORIDE] : 0.4

// CRE value for CC(C)N(CCC(C(N)=O)(c1ccccc1)c1ccccn1)C(C)C (stereo unspecified) [DISOPYRAMIDE] : 0.2

// CRE value for O=NN(CCCl)C(=O)NC1CCCCC1 [LOMUSTINE] : 0.5

// CRE value for CN(C)CCC=C1c2ccccc2COc2ccccc21 [DOXEPIN] : 0.2

// CRE value for CCCCc1oc2ccccc2c1C(=O)c1cc(I)c(OCCN(CC)CC)c(I)c1 [AMIODARONE] : 0.4

// CRE value for CC1=C(CC(=O)O)c2cc(F)ccc2/C1=C\c1ccc([S+](C)[O-])cc1 (stereo unspecified) : 0.2

// CRE value for OCCOCCN1CCN(C(c2ccccc2)c2ccc(Cl)cc2)CC1 (stereo unspecified) [HYDROXYZINE] : 0.2

// CRE value for CCc1oc2ccccc2c1C(=O)c1cc(Br)c(O)c(Br)c1 [BENZBROMARONE] : 0.5

// CRE value for CC[C@H]1[C@@H]2C[C@H]3[C@@H]4N(C)c5ccccc5[C@]45C[C@@H]([C@@H]2[C@H]5O)N3[C@@H]1O [AJMALINE] : 0.5

// CRE value for CN(C)C(=N)N=C(N)N [METFORMIN] : 0.2

// CRE value for CCC1(c2ccccc2)C(=O)NC(=O)NC1=O [PHENOBARBITAL] : 0.5

----------
Would you kindly list ALT for each of these molecules?
species: Rattus norvegicus; assay: Open TG-GATES - Regimen: Single; format: toxicity, organism-based, Sprague-Dawley; set-up: regimen Single, gender Male, age 6 weeks; conditions: in vivo, po, 100 mg/kg, 24 h, tissue Plasma, route gavage, dose level Low
Express your answer as a number followed by its unit.

// ALT value for O=NN1CCOCC1 : 134.6 IU/L

// ALT value for CN(C)CCC=C1c2ccccc2COc2ccccc21 [DOXEPIN] : 45 IU/L

// ALT value for CN(C)C(=N)N=C(N)N : 51.6 IU/L

// ALT value for CCC1(c2ccccc2)C(=O)NC(=O)NC1=O : 39 IU/L

----------
organism: Rattus norvegicus; assay: Open TG-GATES - Regimen: Daily Repeat; type: toxicity, organism-based, Sprague-Dawley; set-up: regimen Daily Repeat, gender Male, age 6 weeks; settings: in vivo, po, 0 mg/kg, […], tissue Blood, route gavage, dose level Control, time 28 day
Would you kindly list Fbg for each of these molecules?
Reply with just the number (in mg/dL).

// Fbg value for O=NN(CCCl)C(=O)NC1CCCCC1 : 250.6

// Fbg value for CN(C)CCC=C1c2ccccc2COc2ccccc21 [DOXEPIN] : 278.6

// Fbg value for CCC1(c2ccccc2)C(=O)NC(=O)NC1=O : 236

// Fbg value for ClC(Cl)(Cl)Cl [CARBON TETRACHLORIDE] : 227.4

// Fbg value for CC[C@H]1[C@@H]2C[C@H]3[C@@H]4N(C)c5ccccc5[C@]45C[C@@H]([C@@H]2[C@H]5O)N3[C@@H]1O : 226.2

----------
species: Rattus norvegicus; experiment: Open TG-GATES - Regimen: Single; type: toxicity, organism-based, Sprague-Dawley; parameters: regimen Single, gender Male, age 6 weeks; conditions: in vivo, po, 0 mg/kg, 24 h, tissue Plasma, route gavage, dose level Control
observable: TBIL (mg/dL)
Reply with just the number (in mg/dL).

// TBIL value for ClC(Cl)(Cl)Cl [CARBON TETRACHLORIDE] : 0.2

// TBIL value for O=NN1CCOCC1 [N-NITROSOMORPHOLINE] : 0.006

// TBIL value for CC(C)N(CCC(C(N)=O)(c1ccccc1)c1ccccn1)C(C)C (stereo unspecified) [DISOPYRAMIDE] : 0

// TBIL value for CC1=C(CC(=O)O)c2cc(F)ccc2/C1=C\c1ccc([S+](C)[O-])cc1 (stereo unspecified) : 0.02

// TBIL value for CN(C)C(=N)N=C(N)N [METFORMIN] : 0.038

// TBIL value for CN(C)CCC=C1c2ccccc2COc2ccccc21 [DOXEPIN] : 0.04

// TBIL value for CCC1(c2ccccc2)C(=O)NC(=O)NC1=O [PHENOBARBITAL] : 0.1

// TBIL value for CC[C@H]1[C@@H]2C[C@H]3[C@@H]4N(C)c5ccccc5[C@]45C[C@@H]([C@@H]2[C@H]5O)N3[C@@H]1O [AJMALINE] : 0.3

// TBIL value for OCCOCCN1CCN(C(c2ccccc2)c2ccc(Cl)cc2)CC1 (stereo unspecified) [HYDROXYZINE] : 0.056

// TBIL value for CCc1oc2ccccc2c1C(=O)c1cc(Br)c(O)c(Br)c1 [BENZBROMARONE] : 0.3

// TBIL value for O=NN(CCCl)C(=O)NC1CCCCC1 [LOMUSTINE] : 0.4
